- Test system: pERK in ASPC1 cells
- assay_summary: Inhibition of KRas phosphorylation of ERK (Cisbio HTRF pERK assay)
- test_parameters: Homo sapiens, ASPC1, read-out: Inhibition (HTRF IC50) of KRas-mediated Phosphorylation of ERK, AsPC-1
parameter: log10 of IC50 (log10 of the value in nM)
In plain terms, each number is the log10 of measured IC50 in nM.

>  <molecule>
CCc1c(F)ccc2cc(O)cc(-c3ncc4c(N5CCOCC6(CCOCC6)C5)nc(OC[C@@]56CCCN5C[C@H](F)C6)nc4c3F)c12

>  <log10 of IC50>
3.04

$$$$
>  <molecule>
CCc1c(F)ccc2cc(O)cc(-c3ncc4c(N5CCCn6nc(C(=O)NC)cc6C5)nc(OC[C@@]56CCCN5C[C@H](F)C6)nc4c3F)c12

>  <log10 of IC50>
1.68

$$$$
>  <molecule>
CCc1c(F)ccc2cc(O)cc(-c3ncc4c(NCCC(N)=O)nc(OC[C@@]56CCCN5C[C@H](F)C6)nc4c3F)c12

>  <log10 of IC50>
2.81

$$$$
>  <molecule>
CCc1c(F)ccc2cc(O)cc(-c3ncc4c(N5CCCC6(C5)C[S+]([O-])C6)nc(OC[C@@]56CCCN5C[C@H](F)C6)nc4c3F)c12 (stereo partly drawn)

>  <log10 of IC50>
3.69

$$$$
>  <molecule>
OCC1COCCN(c2nc(OC[C@@]34CCCN3C[C@H](F)C4)nc3c(F)c(-c4cc(O)cc5ccc(F)c(Br)c45)ncc23)C1 (stereo partly drawn)

>  <log10 of IC50>
2.21

$$$$
>  <molecule>
CCc1c(F)ccc2cc(O)cc(-c3ncc4c(N5CCCC6(CNC(=O)N6)C5)nc(OC[C@@]56CCCN5C[C@H](F)C6)nc4c3F)c12 (stereo partly drawn)

>  <log10 of IC50>
2.16

$$$$
>  <molecule>
CC1(O)CCCN(c2nc(OCC34CCCN3CCC4)nc3c(F)c(-c4cc(O)cc(Cl)c4C4CC4)ncc23)C1 (stereo not drawn)

>  <log10 of IC50>
3.32

$$$$
>  <molecule>
CCc1c(F)ccc2cc(O)cc(-c3ncc4c(NCc5cccnc5N)nc(OC[C@@]56CCCN5C[C@H](F)C6)nc4c3F)c12

>  <log10 of IC50>
2.50

$$$$
>  <molecule>
CCc1c(F)ccc2cc(O)cc(-c3ncc4c(N5CCCn6nc(C(=O)N7CCCC7)cc6C5)nc(OC[C@@]56CCCN5C[C@H](F)C6)nc4c3F)c12

>  <log10 of IC50>
0.90

$$$$

For the next question, use this molecule.
input: Query: log10 of IC50; subject: CCc1c(F)ccc2cc(O)cc(-c3ncc4c(N5C[C@@H]6C[C@H](C5)[C@H](O)C6)nc(OC[C@@]56CCCN5C[C@H](F)C6)nc4c3F)c12 (single isomer, unassigned)
output: 0.85

---

Measured log10 IC50 values are reported for all entries that follow.
- target_entity: KRas G12V (Homo sapiens, UniProt P01116, G12V);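 also: KRas binding measured by TR-FRET displacement at room temperature, IC50 fitted from percent of control values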
- Sequence (P01116 1-169 isoform P01116-2 G12V): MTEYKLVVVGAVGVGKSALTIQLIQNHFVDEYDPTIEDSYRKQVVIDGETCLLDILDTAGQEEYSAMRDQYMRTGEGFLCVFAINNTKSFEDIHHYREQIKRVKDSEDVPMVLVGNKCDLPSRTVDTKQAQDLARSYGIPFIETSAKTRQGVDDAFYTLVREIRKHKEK
- assay_summary: biochemical
In plain terms, each number is the log10 of measured IC50 in nM.

Here's what some known entries look like.
>  <compound>
O=C(c1cc2n(n1)CCCN(c1nc(OCC34CCCN3CCC4)nc3c(F)c(-c4cccc5cccc(F)c45)ncc13)C2)N1CCOCC1

>  <log10 IC50>
2.48

$$$$
>  <compound>
CN(C)c1cc2n(n1)CCCN(c1nc(OCC34CCCN3CCC4)nc3c(F)c(-c4cccc5cccc(F)c45)ncc13)C2

>  <log10 IC50>
4.13

$$$$
>  <compound>
CCc1c(F)ccc2cc(O)cc(-c3ncc4c(NCc5cc[nH]n5)nc(OC[C@@]56CCCN5C[C@H](F)C6)nc4c3F)c12

>  <log10 IC50>
0.48

$$$$
>  <compound>
CCc1c(F)ccc2cc(O)cc(-c3ncc4c(N5CCCC6(C5)C[S+]([O-])C6)nc(OC[C@@]56CCCN5C[C@H](F)C6)nc4c3F)c12 (stereo partly shown)

>  <log10 IC50>
1.45

$$$$
>  <compound>
Nc1n[nH]c(CCNc2nc(OCC34CCCN3CCC4)nc3c(F)c(-c4cccc5cccc(F)c45)ncc23)n1

>  <log10 IC50>
4.29

$$$$

input: Query: log10 IC50; subject: `CCc1c(F)ccc2cc(O)cc(-c3ncc4c(NCCCc5ccncc5)nc(OC[C@@]56CCCN5C[C@H](F)C6)nc4c3F)c12`
output: 1.30

input: Query: log10 IC50; subject: `CCc1c(F)ccc2cc(O)cc(-c3ncc4c(NCCCc5cc[nH]n5)nc(OC[C@@]56CCCN5C[C@H](F)C6)nc4c3F)c12`
output: 0.48

Ref: patent US12398154B2
